# study_system: MNK1 (Homo sapiens (Human), UniProt Q9BUB5)
# Sequence (Q9BUB5 other isoform, or with tags, fused parts or gaps): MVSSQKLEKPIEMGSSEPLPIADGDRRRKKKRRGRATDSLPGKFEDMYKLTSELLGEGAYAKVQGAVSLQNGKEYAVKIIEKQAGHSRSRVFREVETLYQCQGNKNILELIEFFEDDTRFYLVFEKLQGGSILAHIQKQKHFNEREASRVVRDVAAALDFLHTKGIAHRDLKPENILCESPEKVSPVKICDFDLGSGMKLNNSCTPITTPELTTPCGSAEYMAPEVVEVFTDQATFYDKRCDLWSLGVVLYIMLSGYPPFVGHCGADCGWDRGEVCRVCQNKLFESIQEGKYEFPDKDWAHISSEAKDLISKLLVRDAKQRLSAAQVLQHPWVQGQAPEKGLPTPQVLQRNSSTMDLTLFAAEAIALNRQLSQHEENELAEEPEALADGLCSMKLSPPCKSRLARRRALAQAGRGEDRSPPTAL
parameter: IC50 (nM)
A number alone suffices; assume nM.

>>> df
                         chemical_structure  unit_name  observed
0  Cc1cc(N=S(C)(C)=O)cc2ncnc(Nc3ccc(F)cc3OCc3ccon3)c12         nM        77
1  Cc1cc(N=S(C)(C)=O)cc2ncnc(Nc3ccc(F)cc3OC(CF)CF)c12         nM        60
2  Cc1cc(N=S(C)(C)=O)cc2ncnc(Nc3ccc(F)cc3O[C@H](C)C(=O)NCC(F)(F)F)c12         nM        55
3  C[C@H](NC(=O)[C@@H](C)Oc1cc(F)ccc1Nc1ncnc2cc(N=S3(=O)CCC3)cc(F)c12)C(F)(F)F         nM        29
4  Cc1cc(N=S(C)(C)=O)cc2ncnc(Nc3ccc(F)cc3OCCC(F)(F)F)c12         nM        75

stdin: // lookup IC50 for C[C@H](NC(=O)[C@@H](C)Oc1cc(F)ccc1Nc1ncnc2cc(N=S(C)(C)=O)cc(F)c12)C(F)(F)F
stdout: 21

stdin: // lookup IC50 for Cc1cc(N=S(C)(C)=O)cc2ncnc(Nc3ccc(Cl)cc3O[C@H](C)C(=O)N[C@@H](C)C(F)(F)F)c12
stdout: 36
